All values here come from the nanobody polyreactivity screen of Harvey et al. (2022).

experiment: yeast display, Sf9 membrane polyspecificity reagent, FACS + sequencing; frameworks hold sequencing errors
MEASURE_NAME: polyreactivity (PSR sort gate)

// known answers, use as guide
QVQLVESGGGLVQAGGSLRLSCAASGNIFSSNAMGWYRQAPGKERELVAAISASGGNTYYSDSVKGRFTISRDNAKNTVYLQMNSLKPEDTAFYYCNAYRGGYLRRGYYYWGQGTQVTVSS ... high polyreactivity
QVQLVESGGGLVQAGGRLRLSCAASGRIFAANVMGSYRQAPGKERELVAAISWNGGSTYYADSEKGRFTISRDNAKKSVYLQLNSLKPEDTAVYYCAVRGSYRVWYDYWGQGTQVTVSS ... high polyreactivity
QVQLVESGGGLVQAGGSLRLSCAASGSTFRRNAMGWYRQPPGKERELVAAISGSGSTYYADSVKGRFTISRDHAKNTVYLQLNSLKPEDTAVYYCAKDVTDPTSRSDRSGDDYWGQGTQVTVSS ... low polyreactivity
QVQLVESGARLVQAVGSLRLSCAASARILTFNAMGWYRQAPGKEREVVASITSDVSTYYADSVKGRFTISRDNAKTTVYLQMNSLKPEDTAVYYCAADGWYTYVGRLDYWRQGTQVTVSS ... low polyreactivity
QVQLVESGGGLVQAGGSLRLSCAASGSTFYSYVMGWYRQAPGKERELVAVISNDGSTNYADSVKGRFTISRDNAKNTVYLQMNSLKPEDTAVYYCNAEWTRDFYEYDYWGQGTQVTVSS ... low polyreactivity

response.value for QVQLVESGGGLVQAGGSLRLSSAASGSIFKINAMGWYRQAPGKETELVATITWSTGTTYYADSVKGRFTISRDNAKNTVYLQMNSLKPEDTAVYYCATDGDSTKLDYWGQVTQVTVSS (field: polyreactivity (PSR sort gate)) = low polyreactivity

response.value for QVQLVESGGGLVQAGGSLRLSCAASGYTFSNNAMGWYRQAPGKERELFPTINSGGSTNYADSVKGRFTISRDNAKNTVYLQMNSLKPEDTAVYYCAAREDLYLYYNGQRVQYDYWGQGTQVTVSS (field: polyreactivity (PSR sort gate)) = low polyreactivity

response.value for QVQLVESGGGLVQAGGSLRLSCAASGFTCKKYAMGWSRQAPGKERDLVASITWYGGSTSYADSVKGRFTISRDNANNTVYLQMNSLKPEDTAVYYCAAATFVYRLRYNRFDYWGQGTQVTVSS (field: polyreactivity (PSR sort gate)) = high polyreactivity

response.value for QVQLVESGGGLVQAGGSLRLSCAASGRTFSFYAMGWYRQAPGKERELVAAIRSDGGTTYYADSVKGRFTISRDNAKNTVYLQMNSLKPEDTAVYYCNTQSFYFVSYSSSRYLRYYWGQGTQVTVSS (field: polyreactivity (PSR sort gate)) = low polyreactivity

response.value for QVHLVESGGGVVQAGGSLRLSCAASGRIFPSYDRGWYRQAPGKERELVATISSRGDSTYYADSVKGRFTISRDNAKNTVYLQMNSLKPEDTAVYYCAAERPFWEYDYWGQGTQVTVSS (field: polyreactivity (PSR sort gate)) = low polyreactivity

response.value for QVQLVESRGGFVQARCSLRLSCDASGRIFYYYGMGWYRQAPGKERELVAAITRNTGRTYYADSVKGRFTISRDNAKNTVYLQMNSLKPEDSSVYYFARDRRTWSPYTRAYRRNDYWVQGTQVTVSS (field: polyreactivity (PSR sort gate)) = high polyreactivity

response.value for QVQLGESGGGLVQAGGSLRLSGAASGRTFNDYTMGWYRPAPGKERELVAAISSSGVLTYYADSVKGRFTISRDNAKYTVYLQMNSLKPEDTAVDYAKRAGYDRRWTYDYRGQGTQVTVSS (field: polyreactivity (PSR sort gate)) = high polyreactivity

response.value for QGQLVESGGGLVQAGCSLRLSCAASGSNFYYKAMGWYRQAPRKERELVARISRSGGSTYADSVKGRFTISRDNAKNTVYLQMNSLKPEDTAVYYCNADAYGTPEFTPYSVRYDYWGQGTQVTVSS (field: polyreactivity (PSR sort gate)) = low polyreactivity

response.value for QVQLVESGGGLVQAGGSLRLSSAASGRIFTYYAMGWYRQAPGKERELVATISRRGGSTYYADSVKGRFTISRDNAKNTVYLQMNSLKPEDTAVYYCNRTYYGYDYWGHGTQVTVSS (field: polyreactivity (PSR sort gate)) = high polyreactivity

response.value for QVQLVESGGGLVKAGGSLRLSCAASGRIFRYYVMGWYRQAPGKERELVASISWRGTSTYYADSVKGRFTISRDNAKNTVYLQMNSLKPEDTAVYYCNAARPGKNYDSWGQGTQVTVSS (field: polyreactivity (PSR sort gate)) = high polyreactivity

response.value for QVQLVESGGGLVQAGGSLRLSCAASGRIFDGYTMGWYRQAPGKERELVAAITYRSGRTYYADSVKGRFTISRDNAKNTVYLQMNSLKPEDTAVYYCNKVKRSFIVNTDDYCGQGTQVTVSS (field: polyreactivity (PSR sort gate)) = high polyreactivity

response.value for QVQLVESGGGLVQAGGSLRLSCAASGRTFRYYTMGWYRQAPGKEREFVAAISSTGGTYYADSVKGRFTISRDNAKNTVYLQMNSLKPEDTAVYYCAAETEDWNEYNYWGQGTQVTVSS (field: polyreactivity (PSR sort gate)) = low polyreactivity

---

test: yeast display, Sf9 membrane polyspecificity reagent, FACS + sequencing; frameworks hold sequencing errors
MEASURE_NAME: polyreactivity (PSR sort gate)

QVQLVESGGGLVQAGGSLRLSCAASGSIFYNTMGWYRQAPGKERELVAAITSGGSTYYADSVKGRFTISRDNAKNTVYLQMNSLKPEDTAVYYCAAESYYCGYQWLYFEYGYWGQGTQVTVSS ... low polyreactivity
QVQLVESGGGLVQAGGSLRLSCAASGSTFQRNAMGWYRQAPGKERELVAAITSRGGSTYYADSVKGRFTISRDNAKNTVSLQMNSLNPEDTGVYYCAALTWARSRNGTYDYWGPGTQVTVSS ... high polyreactivity
QVQLVESGGGLVQAGGSLRLSCAASGSTFAGNAMGWYRQAPGKERELVAAITWSGGNTNYADSVKGRFTISRDNAKNTVYLQMNSLKPEDTAVYYCASDFSGSLAYDYWGQGTQVTVSS ... low polyreactivity
QDQLVESGGGLVQAGGSLRLSCAASALTFVRYAMGWYRQAPGKERELVAAISSGGSTNYADSVKGSFTISRDNAKNTVYLQMNSLKPEDSAVYYCAAVRYRYPHTMYYWGLGTQVTVSS ... high polyreactivity
QVQLVESGGGLVQAGGSLRLSCAASGSIFGYYPMGWYRQAPGKERELVAAITSGGNTYYADSVKGRFTISRDNAKNTVYLQMNSLKPEDTAVYYCNAVWRTRDYDYWGQGTQVTVSS ... low polyreactivity

response.value for QVQLVESGGGFVQAGGSLRLSCAASGRTYTLNAMRWYRQAPGKERELVAAITWGAGSTYYADSVKGRFTISRDNAKNTVYLQMNSLKPEDTAVYYCAARFHGAYYRYRSPSMYYWGQGTQVTVSS (field: polyreactivity (PSR sort gate)) = high polyreactivity

response.value for QVQLVESGGGLVQAGGSLRLSCAASGSIFFTYVMGWYRQAPGKERELVAAISSDDNTNYADSVKGRFTISRDNAKNTVYLQMNSLKPEDTAVYYCNADTTLYPYYDYGYYDYDYWGQGTQVTVSS (field: polyreactivity (PSR sort gate)) = low polyreactivity

response.value for QVQLVESGGGLLQAGGSLRLSCAASGRIFGSYAMGWYRPAPGKERELVAAINWRGGSTFYADSVKGRFTISRDNAKNTVYLQMNSLKPEDTAVYYCARRGYRQSGDYWGQGSQVTVSS (field: polyreactivity (PSR sort gate)) = low polyreactivity

---

experiment: yeast display, Sf9 membrane polyspecificity reagent, FACS + sequencing; frameworks hold sequencing errors
MEASURE_NAME: polyreactivity (PSR sort gate)

// known answers, use as guide
QVQLVESGGGLVQAGGSLSLSCAASGSIFSYYDMGWYIQAPGKERELVAGISRGGSTNYADSVKGRFTISRDNAKNTVYLQMNSLKPEDPAVYYCNADYIFWLTLFDYWGQGTQVTVSS ... low polyreactivity
QVQLVESGGGLVQAGGSLRLSCAASGLIFNNYAMGWYRQAPGKERELVATISRTGTSTYYADSVKGRFTISRDNAKNTVYLQMNSLKPEDTAVYYCNAVIQLFEWGWDDEYDYWGQGTQVTVSS ... low polyreactivity
QVQLVESGGGLVQAGGSLRLSCADSGSIFAYYARGWYRQAPGKERELVAAISQSGGSTYYAYSVKGRFTISRDTAKNTVYLQMNSLKPEDTAVYYCAARFRYGYTGYRYDYWGQGTQVTVSS ... high polyreactivity
QVQLVESGGGLVQAGGSLRLSSAASGFIFDGNAMGWYRQAPGKERELVAAIRSGGRTNYADSVKGRFTISRDNAKNTVYLQMNSLKPEDTAVYYCAARSIYPYYYRRDNRYYYWGQGTQVTVSS ... high polyreactivity
QVQIVESGAGLVQAGGSLSLSCDASGFIFVWYAMGWYRQAPGKERELVAAISWTGGSTYYADSVKGRFTISRDNAKNTVYLQINSLKPEDTAVYYCAATYEFYPEELDYWGQGTQVTVSS ... low polyreactivity

response.value for QVQLVESGGGLVQAGGSLRLSCAASGRIVEVYAMGWYRQARGKERELVAAISSGGGSTYYADSVKGRFTISRDNAKNTVYLQMNSQKPEDTAVYYCAARKPSVRGAPYYYWGQGTQVTVSS (field: polyreactivity (PSR sort gate)) = high polyreactivity

response.value for QVQLVESGGGLVQAGGSLRLSCAASGSIFYTYAMGWYRQAPWKEREFVAASTGTGVRTYYADSVKGRFTISRDNAKNTVYLPMNSLKPEDTAVYYCAAVSAYRWIGLTNYSTYGYWGQGTQVTVSS (field: polyreactivity (PSR sort gate)) = high polyreactivity

response.value for QVQLVESGGGLVQAGGRLRLSCAASGLTFYLSAMGWYRQAPGKERELVAGISRSGGSTYYADAVKGRFTISRDYAKNTVYLLMNSLKPEDTAVSYCNKASAVFEFYYWGQGTQVTVSS (field: polyreactivity (PSR sort gate)) = high polyreactivity

response.value for QVQLVESGGGLVQAGGSLRLSCAASGNTFRVYTMGWYRQAPGKERELVAAINSSGRTNYADSVKGRFTISRDNAKNTVYLLMNCLKPEDTAVYYCAADYYQWSTFLGVYEYAYWGQGTQVTVSS (field: polyreactivity (PSR sort gate)) = low polyreactivity

response.value for QVHLVESGGGLVQAGGSLRLSCAASGRTFGTYAMGWYRQAPGKERELVAAISSGGSTNYADSVKGRFTISRGNAKNTVYLQMNSLKPEDTAVYYCAAQGYWTYWPYLLRLYDYWGQGTQVTVSS (field: polyreactivity (PSR sort gate)) = low polyreactivity

response.value for QVQLVESGGGLVQAGGSLRLSCAASGRIFYVYAMGWYRQAPGKERELVAAINWRGGSTYYADSVKGRFPISRDNAKNTVYLQMNSLKPEDTAVYYCAARWYLYDYWGQGTQVTVSS (field: polyreactivity (PSR sort gate)) = low polyreactivity
